We begin with a simple list: items and their reported pIC50.
Test: Cytotoxicity SRB assay (HeLa)
Type: cell-based
Conditions: human, HeLa cells, read-out: Cytotox SRB (HeLa) IC50
// pIC50: -log10(molar conc.)

Would you please look over these solved cases?
- compound: "NC1=NC(c2ccccc2C(F)(F)F)N(CCCOc2ccc(Cl)cc2)C(N)=N1 (stereo not shown)"
  pIC50: 4.72
- compound: "NC1=NC(c2ccc(Cl)c(F)c2)N(CCCOc2ccc(Cl)c(Cl)c2)C(N)=N1 (stereo not shown)"
  pIC50: 4.84
- compound: "NC1=NC(c2ccc(Cl)cc2)N(CCCOc2ccc(Cl)cc2)C(N)=N1 (stereo not shown)"
  pIC50: 4.81
- compound: "NC1=NC(c2ccc(F)cc2F)N(CCCOc2ccc(Cl)cc2)C(N)=N1 (stereo not shown)"
  pIC50: 4.50
- compound: "NC1=NC(c2ccccc2F)N(CCCOc2ccc(Cl)cc2)C(N)=N1 (stereo not shown)"
  pIC50: 4.28
- compound: "NC1=NC(c2ccccc2Cl)N(CCCOc2ccc(Cl)cc2)C(N)=N1 (stereo not shown)"
  pIC50: 4.80
- compound: "NC1=NC(c2ccccc2)N(CCCOc2ccccc2Cl)C(N)=N1 (stereo not shown)"
  pIC50: 4.05
- compound: "COc1ccc(C2N=C(N)N=C(N)N2CCCOc2ccc(Cl)cc2)cc1 (stereo not shown)"
  pIC50: 4.60
- compound: "NC1=NC(c2ccc(Cl)cc2)N(CCCOc2ccc(Cl)c(Cl)c2)C(N)=N1 (stereo not shown)"
  pIC50: 4.87
- compound: "NC1=NC(c2cccc(Cl)c2F)N(CCCOc2ccc(Cl)c(Cl)c2)C(N)=N1 (stereo not shown)"
  pIC50: 4.87

Exam item: Name the recorded pIC50 for COc1ccc(OCCCN2C(N)=NC(N)=NC2c2ccccc2)cc1 (stereo not shown) .
Marked response: 3.60

Exam item: Name the recorded pIC50 for NC1=NC(c2ccc(Cl)c(F)c2)N(CCCOc2ccc(Cl)cc2)C(N)=N1 (stereo not shown) .
Marked response: 4.86

Exam item: Name the recorded pIC50 for NC1=NC(c2cc(Cl)ccc2Cl)N(CCCOc2ccc(Cl)cc2)C(N)=N1 (stereo not shown) .
Marked response: 4.96

----------
Assay: Cytotoxicity SRB assay (HeLa)
Type: cell-based
Conditions: human, HeLa cells, read-out: Cytotox SRB (HeLa) IC50
observable: IC50 (µM)
I only need the number, in µM, no unit after it.

Would you please look over these solved cases?
- molecule: "NC1=NC(c2ccc(C(F)(F)F)cc2)N(CCCOc2ccc(Cl)cc2)C(N)=N1 (stereo not drawn)"
  IC50 [µM]: 11
- molecule: "NC1=NC(c2ccccc2Cl)N(CCCOc2ccc(Cl)c(Cl)c2)C(N)=N1 (stereo not drawn)"
  IC50 [µM]: 13.7
- molecule: "NC1=NC(c2ccc(C(F)(F)F)cc2)N(CCCOc2ccc(Cl)c(Cl)c2)C(N)=N1 (stereo not drawn)"
  IC50 [µM]: 13.1
- molecule: "NC1=NC(c2ccccc2)N(CCCOc2ccc(Cl)c(Cl)c2)C(N)=N1 (stereo not drawn)"
  IC50 [µM]: 33.5
- molecule: "NC1=NC(c2ccc(Cl)cc2Cl)N(CCCOc2ccc(Cl)cc2)C(N)=N1 (stereo not drawn)"
  IC50 [µM]: 12.1
- molecule: "NC1=NC(c2ccccc2C(F)(F)F)N(CCCOc2ccc(Cl)c(Cl)c2)C(N)=N1 (stereo not drawn)"
  IC50 [µM]: 11.8
- molecule: "NC1=NC(c2ccccc2F)N(CCCOc2ccc(Cl)c(Cl)c2)C(N)=N1 (stereo not drawn)"
  IC50 [µM]: 29.5
- molecule: "NC1=NC(c2ccccc2)N(CCCOc2ccccc2F)C(N)=N1 (stereo not drawn)"
  IC50 [µM]: 67.6

Exam item: Name the recorded IC50 for NC1=NC(c2ccccc2)N(CCCOc2cccc(C(F)(F)F)c2)C(N)=N1 (stereo not drawn) .
Marked response: 14.2

----------
Assay: Cytotoxicity SRB assay (HeLa)
Assay type: cell-based
Conditions: human, HeLa cells, read-out: Cytotox SRB (HeLa) IC50
observable: pIC50
// pIC50: -log10(molar conc.)

Would you please look over these solved cases?
- compound: "NC1=NC(c2cccc(Cl)c2F)N(CCCOc2ccc(Cl)cc2)C(N)=N1 (centres unmarked)"
  number: 4.64
- compound: "NC1=NC(c2ccccc2)N(CCCOc2ccc(Cl)cc2Cl)C(N)=N1 (centres unmarked)"
  number: 4.49
- compound: "COc1cccc(C2N=C(N)N=C(N)N2CCCOc2ccc(Cl)cc2)c1F (centres unmarked)"
  number: 4.48
- compound: "NC1=NC(c2cccc(Cl)c2)N(CCCOc2ccc(Cl)cc2)C(N)=N1 (centres unmarked)"
  number: 4.85

Now examine the next entry.
Exam item: Name the recorded pIC50 for NC1=NC(c2ccccc2)N(CCCOc2ccc(Cl)cc2)C(N)=N1 (centres unmarked) .
Marked response: 4.41
